ARE-luciferase IC50 values, listed per item
- assayTarget: T1, human Activin A (R&D Systems) (human, UniProt P08476 311-426)
- T1 sequence (looked up): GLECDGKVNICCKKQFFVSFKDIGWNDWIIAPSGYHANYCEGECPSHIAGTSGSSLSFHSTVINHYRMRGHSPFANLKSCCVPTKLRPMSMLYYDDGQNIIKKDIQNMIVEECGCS
- experimentalDetails: cell-based or functional assay
property: ARE-luciferase IC50

| binder | recordedValue |
| --- | --- |
| 2987_B04 (designed binder) MGVSDVPRDLEVVAATPTSLLISWSLPYPGHLNYYRITYGETGGNSPVQEFTVPGRGVTATISGLKPGVDYTITVYAVTLTKSKIIHYMPISINYRTEIDKPSQHHHHHH | 239 nM |
| 2524_H11 (designed binder) MGVSDVPRDLEVVAATPTSLLISWSLPHAGHAHYYRITYGETGGNSPVQEFTVPGRGVTATISGLKPGVDYTITVYAVTVSSTKVIVYLPISINYRTEIDKPSQHHHHHH | > 1000 nM |
| 2525_F07 (designed binder) MGVSDVPRDLEVVAATPTSLLISWSLPYAAHMNYYRITYGETGGNSPVQEFTVPGRGVTATISGLKPGVDYTITVYAVTLTRSQVIHYMPISINYRTEIDKPSQHHHHHH | > 1000 nM |
| 3008_A03 (designed binder) MGVSDVPRDLEVVAATPTSLLISWSLPHHGFGHYYRITYGETGGNSPVQEFTVPGRGVTATISGLKPGVDYTITVYAVTVTATGIIIYKPISINYRTEIDKPSQHHHHHH | > 2000 nM |
